The origin of these recorded values is ChEMBL document CHEMBL1811853.

In this section we review reported inhibition values for a set of compounds.
# test.system: Insulin receptor (Homo sapiens)
# method.summary: Inhibition of INSR at 30 uM by microfluidic mobility shift assay

structure.smiles: CN1CCN(c2ccc(-c3cc4[nH]nc(N)c4c(=O)[nH]3)cc2)CC1
inhibition: 17%
//
structure.smiles: Cc1cc2c(c(N)nn2C)c(N2CC[C@H](O)C2)n1
inhibition: -2%
//
structure.smiles: Nc1c2cnc(-c3ccccc3)cc2nn1-c1ccccc1
inhibition: 3%
//
structure.smiles: CN1CCN(c2ccc(-c3cc4c(c(N)nn4C)c(=O)[nH]3)cc2)CC1
inhibition: 9%
//
structure.smiles: Nc1n[nH]c2c3c([nH]c(=O)c12)CCCC3
inhibition: -3%
//
structure.smiles: Cc1cc2[nH]nc(N)c2c(=O)[nH]1
inhibition: -2%
